Target: Kappa-type opioid receptor (Homo sapiens)
Test: kappa opioid receptor blockers – cell-based, luminescence, uHTS (AID 1778)
Conditions: KOR beta-arrestin recruitment, antagonist mode; at 10 µM unless noted
In all, about 290,000 compounds went through this assay and about 260 (0.09%) were called active. Rule as the data show it: active = inhibition above about 50%; inactive = the rest. The sample as a whole holds a higher share of actives than the screen did. Results with a measured potency or affinity are listed apart.
Outcomes: TRUE (active), FALSE (inactive)

compound | category label
O=C1C(Cl)=C(Nc2ccccc2)C(=O)c2ccccc21 | FALSE
Cc1cccc(Cc2cnc(N3C(=N)SC(c4ccccc4)C3=O)s2)c1 (configuration not stated) | FALSE
Cc1ccc(NC2=C(Cl)C(=O)c3ccccc3C2=O)cc1 | FALSE
CCCCN1C(=O)C2(OCCCO2)c2cccc(C)c21 | FALSE
Cc1ccc(Cc2cnc(N3C(=N)SC(C)C3=O)s2)cc1 (configuration not stated) | TRUE
Cc1ccc(Cc2cnc(N3C(=N)SC(c4ccccc4)C3=O)s2)cc1 (configuration not stated) | FALSE
CC(=O)c1ccc(NC(=S)N2CCCC(CO)C2)cc1 (configuration not stated) | FALSE
COc1ccc(CC(=O)Nc2ccc(C(C)=O)cc2)cc1 | FALSE
CC1=C(C(=O)Nc2ccccc2C)C(c2ccccc2)NC(=O)N1 (configuration not stated) | FALSE
CCOc1ccc(S(=O)(=O)N(C)CC(=O)NCc2ccco2)cc1 | FALSE
Oc1[nH]c2ccc(Br)cc2c1N=NC(=S)N1CCOCC1 | FALSE
Cc1cccc(Cc2cnc(NC(=O)c3ccc(C)o3)s2)c1 | FALSE

---

Molecular target: Kappa-type opioid receptor (Homo sapiens) (UniProt P41145)
Sequence (P41145 whole entry, looked up): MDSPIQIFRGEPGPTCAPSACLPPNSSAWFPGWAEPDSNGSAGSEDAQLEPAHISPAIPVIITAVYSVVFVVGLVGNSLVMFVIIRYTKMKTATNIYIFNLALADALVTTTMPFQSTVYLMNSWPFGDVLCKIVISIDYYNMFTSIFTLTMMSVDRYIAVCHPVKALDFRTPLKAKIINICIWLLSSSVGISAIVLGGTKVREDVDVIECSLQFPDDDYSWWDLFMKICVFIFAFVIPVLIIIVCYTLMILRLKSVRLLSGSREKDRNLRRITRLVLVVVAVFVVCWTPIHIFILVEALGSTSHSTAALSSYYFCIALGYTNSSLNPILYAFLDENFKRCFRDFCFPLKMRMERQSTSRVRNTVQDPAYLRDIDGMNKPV
Experiment: kappa opioid receptor blockers – cell-based, luminescence, uHTS (AID 1778)
Settings: KOR beta-arrestin recruitment, antagonist mode, stronger effect = higher value; at 10 µM unless noted
The whole screen tested about 290,000 compounds, of which about 260 (0.09%) were called active. The sample as a whole holds a higher share of actives than the screen did. Measured potencies and affinities stand elsewhere.

compound | target entity | measurement units | inhibition
O=C(c1ccc(-c2ccccc2)cc1)c1ccc([N+](=O)[O-])cc1 | Kappa-type opioid receptor (Homo sapiens) (UniProt P41145) | % | -69.2
Cc1ccc(SC[C@H](CC(C)C)N2CCN(C)CCC2=O)cc1 | Kappa-type opioid receptor (Homo sapiens) (UniProt P41145) | % | 30.9
O=C(Nc1cccc([N+](=O)[O-])c1)c1ccccc1 | Kappa-type opioid receptor (Homo sapiens) (UniProt P41145) | % | 2.6
O=C(COc1ccccc1)N1CCN=C1SCc1ccc(F)cc1 | Kappa-type opioid receptor (Homo sapiens) (UniProt P41145) | % | 2.9
O=C(C(Sc1ccccc1)c1ccc(Br)cc1)N1CCOCC1 (stereo unspecified) | Kappa-type opioid receptor (Homo sapiens) (UniProt P41145) | % | 20.5
CCOC(=O)N1CCC(N2CCN(c3cc(C)ccc3C)CC2)CC1 | Kappa-type opioid receptor (Homo sapiens) (UniProt P41145) | % | 11.6
Cc1cc(C(=O)Nc2ccc(Br)cc2)cs1 | Kappa-type opioid receptor (Homo sapiens) (UniProt P41145) | % | 9.2
CC1Oc2ccccc2C=C1/C=N/NC(=O)c1ccncc1 (stereo unspecified) | Kappa-type opioid receptor (Homo sapiens) (UniProt P41145) | % | 22.3
CC(/C=N\N1CCN(c2ccc(Cl)cc2)CC1)=C\c1ccccc1 | Kappa-type opioid receptor (Homo sapiens) (UniProt P41145) | % | 53.7
O=C(CN1C(=O)S/C(=C\c2ccc(F)cc2)C1=O)NCCCn1ccnc1 | Kappa-type opioid receptor (Homo sapiens) (UniProt P41145) | % | 1.3
O=C(c1ccccc1)c1ccc(Sc2ccc([N+](=O)[O-])cc2)cc1 | Kappa-type opioid receptor (Homo sapiens) (UniProt P41145) | % | 10.8

---

Molecular target: Kappa-type opioid receptor (Homo sapiens)
Test: kappa opioid receptor blockers – cell-based, luminescence, uHTS (AID 1778)
Details: KOR beta-arrestin recruitment, antagonist mode; at 10 µM unless noted
The campaign covered roughly 290,000 compounds. About 260 (0.09%) were called active. No stated cut-off is given here; in the data, active means inhibition above about 50%; inactive means the rest. For the sample, actives were picked, then their nearest neighbours and some compounds at random. Potency and affinity values are given separately.
Outcomes: 1.0 for active, 0.0 for inactive

compound | category label
C/C(=N\S(=O)(=O)c1ccc(C)cc1)NC(=S)Nc1ccc(C)cc1 | 0.0
O=C(O)CC1(CC(=O)Nc2ccc(C(F)(F)F)cc2)CCCC1 | 0.0
CC1(C)CC(=O)CC(=Nc2ccc3[nH]c(=O)[nH]c3c2)C1 | 0.0
Oc1c(C(c2cccs2)N2CCN(c3ccccc3)CC2)ccc2cccnc12 (centres undefined) | 0.0
Cc1nc(-c2noc(-c3ccc(Cl)cc3)n2)c(C(F)(F)F)o1 | 0.0
Cc1nc(Cl)c(C(=O)NCc2ccccc2)c(C)c1[N+](=O)[O-] | 0.0
Cc1ccc(Nc2cc(C)nn2-c2nc(C)cc(C)n2)cc1 | 0.0
O=C(C1=C[C@H](c2ccccc2)C[C@H](OCc2ccc(CO)cc2)O1)N1CCN(Cc2ccc3c(c2)OCO3)CC1 | 0.0
Cc1ccc(-c2onc(C)c2C)cc1S(=O)(=O)N1CC(C)Oc2ccccc21 (centres undefined) | 0.0
COc1ccc(OC)c(-n2c(SCC(C)=O)nnc2-c2cccc(S(=O)(=O)N(C)C)c2)c1 | 0.0
Cc1[nH]n(-c2ccccc2)c(=O)c1/C=N/N1C(=O)c2ccc3c4c(ccc(c24)C1=O)CC3 | 0.0
N=C1C(c2nc3ccccc3s2)=C(O)CN1CCCO | 0.0
CC(=O)N1CCc2cc(S(=O)(=O)NC(Cc3ccccc3)C(=O)NCCN3CCCCC3C)ccc21 (centres undefined) | 0.0
COc1ccc(CNC(=O)c2ccc(CN3CCOCC3)cc2)cc1 | 0.0
CCOC(=O)c1cnn(-c2nc(C)nc3sc4c(c23)CCC4)c1N | 0.0
Cn1ccnc1Sc1ccccc1[N+](=O)[O-] | 0.0
CC(=O)NC(=S)Nc1cccc([N+](=O)[O-])c1 | 0.0
CC1CCCCN1C(=O)COc1ccccc1F (centres undefined) | 0.0
COc1ccccc1NC(=O)CN1CC(=O)Nc2ccccc21 | 0.0
Cc1cc(C)cc(N2C(N)=NC(N)=NC2c2ccccc2F)c1 (centres undefined) | 0.0
CCOc1ccc(NC(=O)N2CC=C(n3c(=O)[nH]c4ccccc43)CC2)cc1 | 0.0
O=C1CSC(c2ccccc2Br)N1c1ccc(Cl)cn1 (centres undefined) | 0.0
O=C(COC(=O)c1c(F)cccc1F)NCCNC(=O)COC(=O)c1c(F)cccc1F | 0.0
CC(=O)NC(Cc1cc(C)ccc1C)C(=O)N1CCN(C(=O)c2ccc([N+](=O)[O-])cc2)CC1 (centres undefined) | 0.0
O=C1c2cccc3cccc(c23)C(=O)N1/N=C/c1ccc(O)cc1O | 0.0
O=C(Nc1cccc(C(=O)O)c1)/C(=C\c1ccccc1)NC(=O)c1cccc2ccccc12 | 0.0
O=C(NCc1ccccc1)c1c(Cl)nc(Cl)c(Cl)c1Cl | 1.0
Oc1c(C(c2ccccc2Cl)N2CCCC2)ccc2cccnc12 (centres undefined) | 1.0
O=C(c1cccs1)N(C(=O)c1cccs1)c1ccc(Br)cn1 | 0.0
Cc1nc(Cl)c(C(=O)NCc2ccccc2)c(C)c1Cl | 0.0
Cc1cc(NCc2ccccn2)n2c(nc3ccccc32)c1C#N | 0.0
C[C@@H]1CCC[C@]2(O[C@H](CCO)C[C@H](O)[C@H]2O)O1 | 0.0
CNc1ccc(OC(F)F)cc1C(=O)c1ccccc1 | 0.0
O=C(Nc1ccccc1)c1ccc(Nc2c([N+](=O)[O-])cc([N+](=O)[O-])c3ccccc23)cc1 | 0.0
Cc1ccc(OCc2ccccc2C)c([N+](=O)[O-])n1 | 0.0
CCOC(=O)c1cnn(-c2nc(SC)nc3sc4c(c23)CCCC4)c1N | 0.0
Cc1ccc(-n2[nH]c(C)c(/C=N/c3cccc(C)n3)c2=O)cc1 | 0.0
COc1ccc(NC(=O)c2ccc(CN(c3cc(Cl)ccc3C)S(=O)(=O)c3ccccc3)cc2)cc1OC | 0.0
O=C(CSc1cccc2cccnc12)N/N=C/c1ccc(F)cc1 | 0.0
CCOC(=O)N1CCN(C(=O)Nc2sc3nc4n(c(=O)c3c2C)CCC(C)CC4)CC1 (centres undefined) | 0.0
CC(=O)/C(=N\Nc1ccccc1)Sc1cccc2cccnc12 | 0.0
CSc1ccc(NC(=O)N2CC=C(n3c(=O)[nH]c4ccccc43)CC2)cc1 | 1.0
O=C(Sc1cccc2cccnc12)c1ccc(F)cc1 | 1.0
CCN(CC)C(=O)Sc1cccc2cccnc12 | 0.0

---

Biological target: Kappa-type opioid receptor (Homo sapiens)
Assay: kappa opioid receptor blockers – cell-based, luminescence, uHTS (AID 1778)
Conditions: KOR beta-arrestin recruitment, antagonist mode, stronger effect = higher value; at 10 µM unless noted
Out of some 290,000 compounds screened, about 260 (0.09%) were called active. Many of the other results were omitted from the sample, so actives are more common in it than they were. Measured potencies and affinities stand elsewhere.

molecule | inhibition [%]
CCn1c(CNC(=O)c2ccco2)nnc1SCC(=O)Nc1cc(C(F)(F)F)ccc1Cl | 1.4
CCOc1cccc(C(=O)N(Cc2cccc(F)c2)C2CCS(=O)(=O)C2)c1 (stereo unspecified) | -33.2
Cc1cc(C)cc(NC(=O)c2ccc3c(c2)CCN3S(C)(=O)=O)c1 | -4.2
CC(C)NS(=O)(=O)c1ccc(CCC(=O)Nc2ccc3c(c2)OCCO3)cc1 | 7.5
Fc1ccc2[nH]c3c(c2c1)CN(C(=S)NCc1ccccc1)CC3 | -9.6
Oc1[nH]c2ccccc2c1C=Nc1ccc2c(c1)OCO2 | -33.1

Numbers sourced from PubChem BioAssay AID1778.
